Origin of the recorded values: patent US20060241051A1

Measured intracellular Ca ion level-increasing activity (FLIPR), listed per entry.
# tested.on: human OT7T175 (metastin receptor) (human, UniProt Q969F8 1-398)
# Sequence (Q969F8 whole entry L364H): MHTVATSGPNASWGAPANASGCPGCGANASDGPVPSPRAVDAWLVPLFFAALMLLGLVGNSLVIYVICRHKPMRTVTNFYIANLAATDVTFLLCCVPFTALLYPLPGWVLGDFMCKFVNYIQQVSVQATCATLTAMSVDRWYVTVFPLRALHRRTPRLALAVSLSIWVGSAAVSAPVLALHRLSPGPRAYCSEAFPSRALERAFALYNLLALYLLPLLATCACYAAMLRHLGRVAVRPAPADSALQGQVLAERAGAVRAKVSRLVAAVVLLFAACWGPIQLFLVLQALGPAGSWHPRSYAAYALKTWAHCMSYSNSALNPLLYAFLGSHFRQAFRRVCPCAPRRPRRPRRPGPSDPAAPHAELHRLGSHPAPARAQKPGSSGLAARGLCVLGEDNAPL
# assay.details: cell-based or functional assay
Numbered stars: 1 amine (or outer) side, 2 acyl side, 3 side chain; on linkers, the order of the positions; unused ones are H or OH. Square brackets hold non-standard residues; d marks the D form. Ends that are not written are not given here. Ala(2-Qui) = 2-quinolylalanine, O=C([C@H](Cc1ccc2ccccc2n1)N[*:1])[*:2]; Arg(Me) = CNC(=N)NCCC[C@H](N)C(=O)O; azaGly = NNC(=O)O
endpoint.name: intracellular Ca ion level-increasing activity (FLIPR)

| binder | assay.value |
| --- | --- |
| [dY]TWNSFGL[Arg(Me)]F-NH2 (N-terminus assumed; SMILES CNC(=N)NCCC[C@H](NC(=O)[C@H](CC(C)C)NC(=O)CNC(=O)[C@H](Cc1ccccc1)NC(=O)[C@H](CO)NC(=O)[C@H](CC(N)=O)NC(=O)[C@H](Cc1c[nH]c2ccccc12)NC(=O)[C@@H](NC(=O)[C@H](N)Cc1ccc(O)cc1)[C@@H](C)O)C(=O)N[C@@H](Cc1ccccc1)C(N)=O) [Compound No. 215: [D-Tyr1,Thr2,Arg(Me)9]MS10] | 10 specific activity to metastin (1-54) |
| [dY]NWNSFGV[Arg(Me)]F-NH2 [Compound No. 213: [D-Tyr1,Val8,Arg(Me)9]MS10] | 2 specific activity to metastin (1-54) |
| [dY]QWNSFGL[Arg(Me)]F-NH2 (N-terminus assumed; SMILES CNC(=N)NCCC[C@H](NC(=O)[C@H](CC(C)C)NC(=O)CNC(=O)[C@H](Cc1ccccc1)NC(=O)[C@H](CO)NC(=O)[C@H](CC(N)=O)NC(=O)[C@H](Cc1c[nH]c2ccccc12)NC(=O)[C@H](CCC(N)=O)NC(=O)[C@H](N)Cc1ccc(O)cc1)C(=O)N[C@@H](Cc1ccccc1)C(N)=O) [Compound No. 214: [D-Tyr1,Gln2,Arg(Me)9]MS10] | 10 specific activity to metastin (1-54) |
| [dY]NVNSFGL[Arg(Me)]F-NH2 (N-terminus assumed; SMILES CNC(=N)NCCC[C@H](NC(=O)[C@H](CC(C)C)NC(=O)CNC(=O)[C@H](Cc1ccccc1)NC(=O)[C@H](CO)NC(=O)[C@H](CC(N)=O)NC(=O)[C@@H](NC(=O)[C@H](CC(N)=O)NC(=O)[C@H](N)Cc1ccc(O)cc1)C(C)C)C(=O)N[C@@H](Cc1ccccc1)C(N)=O) [Compound No. 229: [D-Tyr1,Val3,Arg(Me)9]MS10] | 1 specific activity to metastin (1-54) |
| [dY]NWNSF[azaGly]LR(Me)F-NH2 [Compound No. 232: [D-Tyr1,AzaGly7,Arg(Me)9]MS10] | 3 specific activity to metastin (1-54) |
| YNWNSFGLR[Ala(2-Qui)]-NH2 (N-terminus assumed; SMILES CC(C)C[C@H](NC(=O)CNC(=O)[C@H](Cc1ccccc1)NC(=O)[C@H](CO)NC(=O)[C@H](CC(N)=O)NC(=O)[C@H](Cc1c[nH]c2ccccc12)NC(=O)[C@H](CC(N)=O)NC(=O)[C@@H](N)Cc1ccc(O)cc1)C(=O)N[C@@H](CCCNC(=N)N)C(=O)N[C@@H](Cc1ccc2ccccc2n1)C(N)=O) [Compound No. 201: [Ala(2-Qui)10]MS10] | 1 specific activity to metastin (1-54) |
| [dY]NWNSFAL[Arg(Me)]F-NH2 (N-terminus assumed; SMILES CNC(=N)NCCC[C@H](NC(=O)[C@H](CC(C)C)NC(=O)[C@H](C)NC(=O)[C@H](Cc1ccccc1)NC(=O)[C@H](CO)NC(=O)[C@H](CC(N)=O)NC(=O)[C@H](Cc1c[nH]c2ccccc12)NC(=O)[C@H](CC(N)=O)NC(=O)[C@H](N)Cc1ccc(O)cc1)C(=O)N[C@@H](Cc1ccccc1)C(N)=O, printed structure is the same as that of Compound No. 173) [Compound No. 204: [D-Tyr1, Ala7, Arg(Me)9]MS10] | 5 specific activity to metastin (1-54) |
| [dY]TNSF[azaGly]L[Arg(Me)]F-NH2 [Compound No. 241: des(1)-[D-Tyr2,Thr3,AzaGly7,Arg(Me)9]MS10] | 1 specific activity to metastin (1-54) |
| [dY]NWNTFGL[Arg(Me)]F-NH2 (N-terminus assumed; SMILES CNC(=N)NCCC[C@H](NC(=O)[C@H](CC(C)C)NC(=O)CNC(=O)[C@H](Cc1ccccc1)NC(=O)[C@@H](NC(=O)[C@H](CC(N)=O)NC(=O)[C@H](Cc1c[nH]c2ccccc12)NC(=O)[C@H](CC(N)=O)NC(=O)[C@H](N)Cc1ccc(O)cc1)[C@@H](C)O)C(=O)N[C@@H](Cc1ccccc1)C(N)=O) [Compound No. 211: [D-Tyr1,Thr5,Arg(Me)9]MS10] | 10 specific activity to metastin (1-54) |
| [dY]WNSF[azaGly]L[Arg(Me)]F-NH2 [Compound No. 222: des(1)-[D-Tyr2,AzaGly7,Arg(Me)9]MS10] | 5 specific activity to metastin (1-54) |
| YNWNSXGLRF (D-Tyr1; Cha6; Arg(Me)9; C-terminal amide, printed structure is the same as that of Compound No. 172) [Compound No. 203: [D-Tyr1,Cha6,Arg(Me)9]MS10] | 10 specific activity to metastin (1-54) |
| [dY]NANSF[azaGly]L[Arg(Me)]F-NH2 (N-terminus assumed; SMILES CNC(=N)NCCC[C@H](NC(=O)[C@H](CC(C)C)NC(=O)NNC(=O)[C@H](Cc1ccccc1)NC(=O)[C@H](CO)NC(=O)[C@H](CC(N)=O)NC(=O)[C@H](C)NC(=O)[C@H](CC(N)=O)NC(=O)[C@H](N)Cc1ccc(O)cc1)C(=O)N[C@@H](Cc1ccccc1)C(N)=O) [Compound No. 235: [D-Tyr1,Ala3,AzaGly7,Arg(Me)9]MS10] | 1 specific activity to metastin (1-54) |
| [dY]NVNSF[azaGly]L[Arg(Me)]F-NH2 (N-terminus assumed; SMILES CNC(=N)NCCC[C@H](NC(=O)[C@H](CC(C)C)NC(=O)NNC(=O)[C@H](Cc1ccccc1)NC(=O)[C@H](CO)NC(=O)[C@H](CC(N)=O)NC(=O)[C@@H](NC(=O)[C@H](CC(N)=O)NC(=O)[C@H](N)Cc1ccc(O)cc1)C(C)C)C(=O)N[C@@H](Cc1ccccc1)C(N)=O) [Compound No. 234: [D-Tyr1,Val3,AzaGly7,Arg(Me)9]MS10] | 1 specific activity to metastin (1-54) |
